- target-system: glycoprotein IIb/IIIa on activated platelets (Homo sapiens, UniProt P08514;P08514;P05106 P08514:32-887,P08514:891-1039,P05106:27-788)
- assay-method-text: filter; apparent Kd on activated platelets, poorest binder
- recorded-conditions: label: 5'-32P
pKd: −log10 of the molar value.
parameter-measured: pKd

• C3 (ssRNA, 2'-F pyrimidines) RNA: GGGAGGACGAUGCGGUGCCACAUGCCUCAGAUACAGCACGCACCUUCGACCUAAUCAGACGACUCGCUGAGGAUCC = 7.21
